test: solubility under the anti-T. gondii protocol conditions; assay type: physicochemical; settings: anti-T. gondii assay protocol, 1 to 100 µg/mL

entrySmiles | solubility under the protocol conditions
O=C(NNC(=S)Nc1ccc([N+](=O)[O-])cc1)c1cccs1 | insoluble
O=C(NNC(=S)Nc1ccc(F)cc1F)c1cccs1 | insoluble
Cc1occc1C(=O)NNC(=S)Nc1ccc(I)cc1 | insoluble
Cc1nnsc1C(=O)NNC(=S)Nc1ccc(Cl)cc1 | insoluble
O=C(NNC(=S)NC1CCCCC1)c1cccs1 | insoluble
CCN=C(S)NNC(=O)c1cccs1 | insoluble
Cc1occc1C(=O)NNC(=S)Nc1ccc(Br)cc1 | insoluble
Cc1ccc(NC(=S)NNC(=O)c2ccoc2C)cc1 | insoluble
